- Test system: constitutively active mTOR
- Measurement Protocol: Test 3: TSC Assay (high content imaging of phospho-S6 (240/244) in TSC1−/− MEFs)
- Format: cell-based
- Conditions: Mus musculus, pS6 240/244 staining, 2 hrs compound treatment
pIC50: −log10 of the molar value.
Rule: class 1 for pIC50 not less than 6, class 0 for anything less.

Smiles Record: COc1ccc(-c2nc3c(N4CCOC[C@@H]4C)nc(N4CCOCC4)nc3[nH]2)cc1C(=O)O
Class: class 0
//
Smiles Record: NCc1cccc(-c2nc3c(N4CCOCC4)nc(N4CCOCC4)nc3[nH]2)c1
Class: class 0
//
Smiles Record: COc1ccc(-c2nc3c(N4CCOC[C@@H]4C)nc(N4CCOC[C@@H]4C)nc3[nH]2)cc1CO
Class: class 1
//
Smiles Record: Oc1cccc(-c2cc3c(N4CCOCC4)nc(N4CCOCC4)nc3[nH]2)c1
Class: class 1
//
Smiles Record: C[C@@H]1COCCN1c1nc(N2CCOC[C@@H]2C)nc2[nH]c(-c3ccc4cc[nH]c4c3)nc12
Class: class 1
//
Smiles Record: OCc1ccccc1-c1nc2c(N3CCOCC3)nc(N3CCOCC3)nc2[nH]1
Class: class 0
//
Smiles Record: Nc1cccc(-c2nc3c(N4CCOCC4)nc(N4CCOCC4)nc3[nH]2)c1
Class: class 0

----------
- Tested Target: FRAP1/mTOR (Homo sapiens (Human))
- Sequence (P42345 1360-2549): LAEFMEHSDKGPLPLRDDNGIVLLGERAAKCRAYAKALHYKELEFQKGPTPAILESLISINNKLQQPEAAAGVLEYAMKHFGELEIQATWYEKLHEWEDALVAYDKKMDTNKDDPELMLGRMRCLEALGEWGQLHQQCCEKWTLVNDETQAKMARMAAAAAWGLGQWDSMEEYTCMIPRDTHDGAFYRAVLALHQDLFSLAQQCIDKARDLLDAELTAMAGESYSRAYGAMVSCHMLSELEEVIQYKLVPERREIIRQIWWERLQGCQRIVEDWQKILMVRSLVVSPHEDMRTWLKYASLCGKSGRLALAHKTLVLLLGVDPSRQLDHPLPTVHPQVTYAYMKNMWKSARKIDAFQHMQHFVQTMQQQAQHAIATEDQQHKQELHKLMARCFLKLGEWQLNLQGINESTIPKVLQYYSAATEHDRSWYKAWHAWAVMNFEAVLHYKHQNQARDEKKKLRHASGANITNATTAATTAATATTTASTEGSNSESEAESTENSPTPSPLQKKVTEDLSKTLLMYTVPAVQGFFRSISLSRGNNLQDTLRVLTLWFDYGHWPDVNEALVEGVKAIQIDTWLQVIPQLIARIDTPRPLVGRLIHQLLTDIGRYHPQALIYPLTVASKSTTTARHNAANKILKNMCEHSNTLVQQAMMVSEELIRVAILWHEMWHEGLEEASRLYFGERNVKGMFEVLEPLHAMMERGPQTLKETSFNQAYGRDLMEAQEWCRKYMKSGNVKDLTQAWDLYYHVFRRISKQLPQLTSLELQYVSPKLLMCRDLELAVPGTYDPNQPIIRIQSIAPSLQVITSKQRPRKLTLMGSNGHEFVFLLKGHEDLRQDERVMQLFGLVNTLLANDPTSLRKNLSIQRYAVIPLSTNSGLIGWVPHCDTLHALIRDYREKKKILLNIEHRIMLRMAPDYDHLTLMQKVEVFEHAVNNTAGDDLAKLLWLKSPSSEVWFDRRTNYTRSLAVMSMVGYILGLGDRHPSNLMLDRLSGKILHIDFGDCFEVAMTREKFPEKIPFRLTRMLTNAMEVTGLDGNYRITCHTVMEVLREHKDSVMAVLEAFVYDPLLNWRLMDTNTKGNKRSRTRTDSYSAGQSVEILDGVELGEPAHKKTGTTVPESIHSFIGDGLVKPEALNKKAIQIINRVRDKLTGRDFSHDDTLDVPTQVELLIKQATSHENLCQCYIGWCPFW
- Measurement Protocol: Test 2: mTOR Biochemical Assay (FRAP1/mTOR TR-FRET tracer assay)
- Conditions: mTOR Kinase Tracer 314
pIC50: −log10 of the molar value.
Reported pIC50 values are given for each entry in this list.

Smiles Record: C[C@H]1COCCN1c1nc(N2CCC(O)CC2)nc2[nH]c(-c3cccc4[nH]ccc34)nc12
pIC50: 6.80

Smiles Record: CC1(C)COCCN1c1nc(N2CCOCC2)nc2[nH]c(-c3ccc4cc[nH]c4c3)nc12
pIC50: 6.80

Smiles Record: C[C@H]1COCCN1c1nc(N2CCOCC2)nc2[nH]c(-c3cccc4[nH]ccc34)nc12
pIC50: 7.85

Smiles Record: C[C@@H]1COCCN1c1nc(N2CCOC[C@@H]2C)nc2[nH]c(-c3cccc4[nH]ccc34)cc12
pIC50: 5.57

Smiles Record: COc1cc(CO)cc(-c2nc3c(N4CCOC[C@@H]4C)nc(N4CCOC[C@@H]4C)nc3[nH]2)c1
pIC50: 6.40

Smiles Record: c1cc(-c2nc3c(N4CCOCC4)nc(N4CCOCC4)nc3[nH]2)c2cn[nH]c2c1
pIC50: 6.47

Smiles Record: C[C@@H]1COCCN1c1nc(N2CCOC[C@@H]2C)nc2[nH]c(-c3cccc4c3CCN4)nc12
pIC50: 7.52

Smiles Record: C[C@H]1COCCN1c1nc(N2CCOCC2)nc2[nH]c(-c3ccc(F)c(CO)c3)nc12
pIC50: 5.85

Smiles Record: c1cc(-c2nc3c(N4CC5CCC(C4)O5)nc(N4CCOCC4)nc3[nH]2)c2cc[nH]c2c1
pIC50: 7.39

----------
- System: constitutively active mTOR
- Measurement Protocol: Test 3: TSC Assay (high content imaging of phospho-S6 (240/244) in TSC1−/− MEFs)
- Format: cell-based
- Conditions: Mus musculus, pS6 240/244 staining, 2 hrs compound treatment
pIC50: −log10 of the molar value.

Smiles Record: c1cc2ccc(-c3nc4c(N5C6CCC5COC6)nc(N5CCOCC5)nc4[nH]3)cc2[nH]1
pIC50: 6.28
//
Smiles Record: c1cc2ncc(-c3nc4c(N5CCOCC5)nc(N5CCOCC5)nc4[nH]3)cc2[nH]1
pIC50: 5.56
//
Smiles Record: Oc1cccc(-c2nc3c(N4CCOCC4)nc(N4CCOCC4)nc3[nH]2)c1
pIC50: 7.14
//
Smiles Record: C[C@H]1COCCN1c1nc(N2CCOC[C@@H]2C)c2nc(-c3ccnc4[nH]ccc34)[nH]c2n1
pIC50: 5.63
//
Smiles Record: c1cc(-c2cc3c(N4CCOCC4)nc(N4CCOCC4)nc3[nH]2)c2cc[nH]c2c1
pIC50: 6.76
//
Smiles Record: C[C@@H]1COCCN1c1nc(N2CC3CCC(C2)O3)nc2[nH]c(-c3cccc4[nH]ccc34)nc12
pIC50: 7.00
//
Smiles Record: C[C@H]1COCCN1c1nc(N2CCOCC2)nc2[nH]c(-c3ccc4cc[nH]c4c3)nc12
pIC50: 6.20
//
Smiles Record: C[C@@H]1COCCN1c1nc(N2CCOCC2)nc2[nH]c(-c3ccc4cc[nH]c4c3)nc12
pIC50: 6.08
//
Smiles Record: OCc1cccc(-c2nc3c(N4CCOCC4)nc(N4CCOCC4)nc3[nH]2)c1
pIC50: 6.21
//
Smiles Record: C[C@H]1COCCN1c1nc(N2CCOCC2)nc2[nH]c(-c3cc(CO)ccc3Cl)nc12
pIC50: 5.24
//
Smiles Record: C[C@@H]1COCCN1c1nc(N2CCOC[C@H]2C)c2nc(-c3ccc4cc[nH]c4c3)[nH]c2n1
pIC50: 6.00
//
Smiles Record: C[C@@H]1COCCN1c1nc(N2CCOC[C@H]2C)c2nc(-c3cc(CO)ccc3F)[nH]c2n1
pIC50: 6.52
//
Smiles Record: CS(=O)(=O)Nc1cccc(-c2nc3c(N4CCOCC4)nc(N4CCOCC4)nc3[nH]2)c1
pIC50: 5.52
//
Smiles Record: c1cc(-c2nc3c(N4CCOCC4)nc(N4CCOCC4)nc3[nH]2)c2cn[nH]c2c1
pIC50: 5.14
//
Smiles Record: c1cc(-c2nc3c(N4CC5CCC(C4)O5)nc(N4CCOCC4)nc3[nH]2)c2cc[nH]c2c1
pIC50: 6.90
//
Smiles Record: C[C@@H]1CN(c2nc(N3CCOCC3)c3nc(-c4cccc(O)c4)[nH]c3n2)C[C@H](C)O1
pIC50: 6.93
//
Smiles Record: COC1CCN(c2nc(N3CCOCC3)c3nc(-c4cccc5[nH]ccc45)[nH]c3n2)CC1
pIC50: 6.34
//
Smiles Record: C[C@@H]1COCCN1c1nc(N2CCOC[C@@H]2C)nc2[nH]c(-c3cccc4[nH]ccc34)nc12
pIC50: 7.41
//
Smiles Record: C[C@@H]1COCCN1c1nc(N2CCOC[C@H]2C)c2nc(-c3cccc4[nH]ccc34)[nH]c2n1
pIC50: 7.21
//
Smiles Record: C[C@@H]1CN(c2nc(N3CCOCC3)c3nc(-c4cccc(N)c4)[nH]c3n2)C[C@H](C)O1
pIC50: 5.99
//
Smiles Record: C[C@@H]1COCCN1c1nc(N2CCOC[C@H]2C)c2nc(-c3cccc4c3CCN4)[nH]c2n1
pIC50: 7.00
//
Smiles Record: C[C@@H]1CN(c2nc(N3CCOCC3)c3nc(-c4ccccc4CO)[nH]c3n2)C[C@H](C)O1
pIC50: 5.10
//
Smiles Record: c1cc(-c2nc3c(N4C[C@@H]5C[C@H]4CO5)nc(N4CCOCC4)nc3[nH]2)c2cc[nH]c2c1
pIC50: 6.04
//
Smiles Record: C[C@@H]1COCCN1c1nc(N2CCOC[C@@H]2C)nc2[nH]c(-c3cccc4[nH]ccc34)cc12
pIC50: 7.15
//
Smiles Record: C[C@H]1COCCN1c1nc(N2CCOC[C@@H]2C)c2nc(-c3ccc4[nH]c(=O)[nH]c4c3)[nH]c2n1
pIC50: 5.84
//
Smiles Record: C[C@H]1COCCN1c1nc(N2CCC(F)(F)CC2)nc2[nH]c(-c3cccc4[nH]ccc34)nc12
pIC50: 6.26
//
Smiles Record: Cc1cc2c(-c3nc4c(N5CCOCC5)nc(N5CCOCC5)nc4[nH]3)cccc2[nH]1
pIC50: 6.50

----------
pIC50, PI3Kα (Homo sapiens (Human)), per-entry values.
pIC50: −log10 of the molar value.
Assay Endpoint: pIC50

Smiles Record: C[C@@H]1COCCN1c1nc(N2CCOC[C@H]2C)c2nc(-c3ccc4cc[nH]c4c3)[nH]c2n1
Assay Endpoint: pIC50
Bound Operator: =
Numeric Value: 5.15
//
Smiles Record: C[C@H]1COCCN1c1nc(N2CCOCC2)nc2[nH]c(-c3cccc4[nH]ccc34)nc12
Assay Endpoint: pIC50
Bound Operator: =
Numeric Value: 5.26
//
Smiles Record: c1cc(-c2cc3c(N4CCOCC4)nc(N4CCOCC4)nc3[nH]2)c2cc[nH]c2c1
Assay Endpoint: pIC50
Bound Operator: =
Numeric Value: 5.70
//
Smiles Record: C[C@H]1COCCN1c1nc(N2CCOCC2)nc2[nH]c(-c3ccc(F)c(CO)c3)nc12
Assay Endpoint: pIC50
Bound Operator: =
Numeric Value: 5.74
//
Smiles Record: COc1ccc(-c2nc3c(N4CCOC[C@@H]4C)nc(N4CCOCC4)nc3[nH]2)cc1C(=O)O
Assay Endpoint: pIC50
Bound Operator: <
Numeric Value: 5.04
//
Smiles Record: Oc1cccc(-c2nc3c(N4CCOCC4)nc(N4CCOCC4)nc3[nH]2)c1
Assay Endpoint: pIC50
Bound Operator: =
Numeric Value: 7.70
//
Smiles Record: C[C@H]1COCCN1c1nc(N2CCOC[C@@H]2C)c2nc(-c3ccc4cc[nH]c4c3)[nH]c2n1
Assay Endpoint: pIC50
Bound Operator: <
Numeric Value: 5.04
//
Smiles Record: C[C@@H]1CN(c2nc(N3CCOCC3)c3nc(-c4cccc(N)c4)[nH]c3n2)C[C@H](C)O1
Assay Endpoint: pIC50
Bound Operator: =
Numeric Value: 5.60

Recorded values, source patent US8987257B2.
